Values compiled from ChEMBL document CHEMBL5537158.

Test system: Pseudomonas aeruginosa
Test: Antimicrobial activity against colistin resistant Pseudomonas aeruginosa 7197/19 assessed as bacterial growth inhibition incubated for 20 hrs by broth microdilution method
Assay type: functional
Positions of bridges follow the written chain, without caps; N, C: chain ends. Non-standard residues stand in square brackets, D forms with d. Residues, ends and D or L forms follow the SMILES beside them. *: point of attachment. Phe(4-F) = N[C@@H](Cc1ccc(F)cc1)C(=O)O; hLeu = CC(C)CC[C@H](N)C(=O)O; Octanoyl = CCCCCCCC(=O)*; Dab = NCC[C@H](N)C(=O)O
measured-quantity: MIC

CCCCCCCC(=O)N[C@@H](CCN)C(=O)N[C@H](C(=O)N[C@@H](CCN)C(=O)N[C@H]1CCNC(=O)[C@H]([C@@H](C)O)NC(=O)[C@H](CCN)NC(=O)[C@H](CCN)NC(=O)[C@H](Cc2ccc(F)cc2)NC(=O)[C@@H](CC(C)C)NC(=O)[C@H](CCN)NC1=O)[C@@H](C)O (Octanoyl-[Dab]T[Dab][Dab][Dab][dL][Phe(4-F)][Dab][Dab]T; lactam 4-C)
32 µg/mL
CCCCCCCC(=O)N[C@@H](CCN)C(=O)N[C@H](C(=O)N[C@@H](CCN)C(=O)N[C@H]1CCNC(=O)[C@H]([C@@H](C)O)NC(=O)[C@H](CCN)NC(=O)[C@H](CCN)NC(=O)[C@H](CCC(C)C)NC(=O)[C@@H](Cc2ccccc2)NC(=O)[C@H](CCN)NC1=O)[C@@H](C)O (Octanoyl-[Dab]T[Dab][Dab][Dab][dF][hLeu][Dab][Dab]T; lactam 4-C)
0.5 µg/mL
